The reported measurements were obtained from the supplement of paper PMC6757056.

B1: library; a variant is named by its letters at N, in order (parent)
chain: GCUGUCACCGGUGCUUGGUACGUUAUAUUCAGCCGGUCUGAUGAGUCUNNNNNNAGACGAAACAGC

# Variants of: B1
# assay_protocol: FACS-Seq fitted mean relative fluorescence mCherry/BFP without ligand (log10 relative fluorescence); HEK293T overexpressing SLC46A1; higher = higher reporter protein expression
# condition_parameters: without (6R,S)-folinic acid; ligand present: no
Provide the recorded FACS-Seq fitted mean (log10) for the entries that follow.
Respond with the number and no other words.

Entry GCUGUCACCGGUGCUUGGUACGUUAUAUUCAGCCGGUCUGAUGAGUCUGAACGCAGACGAAACAGC [GAACGC] , FACS-Seq fitted mean (log10) reported as 0.22

Entry GCUGUCACCGGUGCUUGGUACGUUAUAUUCAGCCGGUCUGAUGAGUCUUCAAAAAGACGAAACAGC [UCAAAA] , FACS-Seq fitted mean (log10) reported as 0.0137

Entry GCUGUCACCGGUGCUUGGUACGUUAUAUUCAGCCGGUCUGAUGAGUCUUUGAUGAGACGAAACAGC [UUGAUG] , FACS-Seq fitted mean (log10) reported as 0.136

Entry GCUGUCACCGGUGCUUGGUACGUUAUAUUCAGCCGGUCUGAUGAGUCUAGUAUGAGACGAAACAGC [AGUAUG] , FACS-Seq fitted mean (log10) reported as 0.41

Entry GCUGUCACCGGUGCUUGGUACGUUAUAUUCAGCCGGUCUGAUGAGUCUUCGGCUAGACGAAACAGC [UCGGCU] , FACS-Seq fitted mean (log10) reported as 0.288

Entry GCUGUCACCGGUGCUUGGUACGUUAUAUUCAGCCGGUCUGAUGAGUCUGCGAUGAGACGAAACAGC [GCGAUG] , FACS-Seq fitted mean (log10) reported as 0.371

Entry GCUGUCACCGGUGCUUGGUACGUUAUAUUCAGCCGGUCUGAUGAGUCUAAUACUAGACGAAACAGC [AAUACU] , FACS-Seq fitted mean (log10) reported as 0.3

Entry GCUGUCACCGGUGCUUGGUACGUUAUAUUCAGCCGGUCUGAUGAGUCUUCAGGGAGACGAAACAGC [UCAGGG] , FACS-Seq fitted mean (log10) reported as 0.0969

Entry GCUGUCACCGGUGCUUGGUACGUUAUAUUCAGCCGGUCUGAUGAGUCUUCCGGGAGACGAAACAGC [UCCGGG] , FACS-Seq fitted mean (log10) reported as 0.446

Entry GCUGUCACCGGUGCUUGGUACGUUAUAUUCAGCCGGUCUGAUGAGUCUCUAGGUAGACGAAACAGC [CUAGGU] , FACS-Seq fitted mean (log10) reported as 0.652

Entry GCUGUCACCGGUGCUUGGUACGUUAUAUUCAGCCGGUCUGAUGAGUCUGGCACCAGACGAAACAGC [GGCACC] , FACS-Seq fitted mean (log10) reported as 0.275

Entry GCUGUCACCGGUGCUUGGUACGUUAUAUUCAGCCGGUCUGAUGAGUCUUCGGUUAGACGAAACAGC [UCGGUU] , FACS-Seq fitted mean (log10) reported as 0.629

Entry GCUGUCACCGGUGCUUGGUACGUUAUAUUCAGCCGGUCUGAUGAGUCUUGACAAAGACGAAACAGC [UGACAA] , FACS-Seq fitted mean (log10) reported as -0.327

Entry GCUGUCACCGGUGCUUGGUACGUUAUAUUCAGCCGGUCUGAUGAGUCUUACGGAAGACGAAACAGC [UACGGA] , FACS-Seq fitted mean (log10) reported as 0.537

Entry GCUGUCACCGGUGCUUGGUACGUUAUAUUCAGCCGGUCUGAUGAGUCUACGUUAAGACGAAACAGC [ACGUUA] , FACS-Seq fitted mean (log10) reported as 0.21

Entry GCUGUCACCGGUGCUUGGUACGUUAUAUUCAGCCGGUCUGAUGAGUCUAUAGUAAGACGAAACAGC [AUAGUA] , FACS-Seq fitted mean (log10) reported as 0.293

Entry GCUGUCACCGGUGCUUGGUACGUUAUAUUCAGCCGGUCUGAUGAGUCUUACUGGAGACGAAACAGC [UACUGG] , FACS-Seq fitted mean (log10) reported as 0.0573

Entry GCUGUCACCGGUGCUUGGUACGUUAUAUUCAGCCGGUCUGAUGAGUCUCGAACAAGACGAAACAGC [CGAACA] , FACS-Seq fitted mean (log10) reported as 0.317

Entry GCUGUCACCGGUGCUUGGUACGUUAUAUUCAGCCGGUCUGAUGAGUCUUUAAAAAGACGAAACAGC [UUAAAA] , FACS-Seq fitted mean (log10) reported as 0.578

Entry GCUGUCACCGGUGCUUGGUACGUUAUAUUCAGCCGGUCUGAUGAGUCUUUAUUGAGACGAAACAGC [UUAUUG] , FACS-Seq fitted mean (log10) reported as 0.469

Entry GCUGUCACCGGUGCUUGGUACGUUAUAUUCAGCCGGUCUGAUGAGUCUUGACGGAGACGAAACAGC [UGACGG] , FACS-Seq fitted mean (log10) reported as -0.24

Entry GCUGUCACCGGUGCUUGGUACGUUAUAUUCAGCCGGUCUGAUGAGUCUAAUACCAGACGAAACAGC [AAUACC] , FACS-Seq fitted mean (log10) reported as 0.72
